These measurements were taken from paper PMC7819943.

Target: OsWRKY34 (Oryza sativa, UniProt Q0JBA9 1-250)
Sequence (Q0JBA9 entry or part of it): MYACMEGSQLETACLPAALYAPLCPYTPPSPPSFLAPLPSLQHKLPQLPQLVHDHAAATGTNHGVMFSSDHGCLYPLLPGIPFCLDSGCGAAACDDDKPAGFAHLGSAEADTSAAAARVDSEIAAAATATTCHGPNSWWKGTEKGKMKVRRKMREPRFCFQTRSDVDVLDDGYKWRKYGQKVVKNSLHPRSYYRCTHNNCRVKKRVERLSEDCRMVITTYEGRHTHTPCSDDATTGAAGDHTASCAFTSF
Assay: protein-binding microarray (RPBM); PBS, 2% BSA, 51.3 ng/ul salmon testes DNA, 50 uM zinc acetate, 200 nM TF, 25 C, 1 h; high values mean tight binding
Conditions: protein: recombinant; tags: N-terminal polyhistidine and DsRed monomer fusion (pET32a); label: CyDye5-dUTP incorporated in the synthesized complementary strand; 3' TTTTT single-stranded linker to array surface; dsDNA, one strand shown
Whole data set: some 68,000 sequences, median “fluorescence intensity (a.u.)” near 9,100, cut for the highest 2% near 16,000. This is one part of a sample in which the highest values are shown more often than they occur.

seq.text: TACGGGTTAGGGTTTGGGGTTGGGGTCAAGGTAGGAGGGGCGGAGTCACCTAGTGCAG
binding signal: 22500 fluorescence intensity (a.u.)

seq.text: TGCGAGTTCGTCGCCGCCTCCGCCGATCTCCATCAGGCGACGGAGTCACCTAGTGCAG
binding signal: 9610 fluorescence intensity (a.u.)

seq.text: GGTCAAATACGTACTAAAAAGTCAACGGTGTCAAACATTTCGGAGTCACCTAGTGCAG
binding signal: 12900 fluorescence intensity (a.u.)

seq.text: CTCCTGACTCCTCCTCGGTTCCTCTTCCTCTCGAGCCCTTCGGAGTCACCTAGTGCAG
binding signal: 9950 fluorescence intensity (a.u.)

seq.text: AAACAATCCGACGGCCCGTATTCCGTGGTCCACGGCCACGCGGAGTCACCTAGTGCAG
binding signal: 9020 fluorescence intensity (a.u.)

seq.text: ACCTGGCTGTGCATGTACTACCCCAATGCATTTCTCTCTCCGGAGTCACCTAGTGCAG
binding signal: 8250 fluorescence intensity (a.u.)

seq.text: GTGCGCGTTCTTGGTGTTATGGAGGCGGGTCTCGGCGGGGCGGAGTCACCTAGTGCAG
binding signal: 17600 fluorescence intensity (a.u.)

seq.text: TACTGTCTGTCAACACACTTCATGATTTCTCATCAAATATCGGAGTCACCTAGTGCAG
binding signal: 10400 fluorescence intensity (a.u.)

seq.text: CGTACTATAATTTTGTCATTCCTGTTGAAATTTTATAATTCGGAGTCACCTAGTGCAG
binding signal: 9340 fluorescence intensity (a.u.)

seq.text: GATTGATTATCCTTTTCTTAAACTATTTTCCTGTTTTTCACGGAGTCACCTAGTGCAG
binding signal: 13200 fluorescence intensity (a.u.)

seq.text: GACGAATGGTCAAACACGTACTAAAAAGTCAACGGTGTCACGGAGTCACCTAGTGCAG
binding signal: 12200 fluorescence intensity (a.u.)

seq.text: TCCTATGTTTTTCCTGCGGTCCAATCAAACGGTCATTCTTCGGAGTCACCTAGTGCAG
binding signal: 12300 fluorescence intensity (a.u.)

seq.text: ATCCAGTGAGCTCGAGGCTTCCCATCTATCCGCCGTTGGTCGGAGTCACCTAGTGCAG
binding signal: 8260 fluorescence intensity (a.u.)

seq.text: TACTACACTATTAATATATGGTCCAACCTGTCATACACACCGGAGTCACCTAGTGCAG
binding signal: 10700 fluorescence intensity (a.u.)

seq.text: ATCGACCCTTGCGCGGACTCCGCTCTCTTGTTGACCACCTCGGAGTCACCTAGTGCAG
binding signal: 14600 fluorescence intensity (a.u.)

seq.text: GGTTTGGTTGGGGTTTAGGTCTCGGGGCGGCGCGGAGGCGCGGAGTCACCTAGTGCAG
binding signal: 17700 fluorescence intensity (a.u.)

seq.text: TCGGAGTGGGGAGATGGTGTCGGGGTGCTGGGTTTCCGGGCGGAGTCACCTAGTGCAG
binding signal: 13100 fluorescence intensity (a.u.)

seq.text: GGGTGGGGTGGGCCTGGGCTGATGCATGTTTGGCGCTTAGCGGAGTCACCTAGTGCAG
binding signal: 21200 fluorescence intensity (a.u.)

seq.text: GATCTCTTGCAGCTGCGCATCTGTGCATGCATCCACACTACGGAGTCACCTAGTGCAG
binding signal: 9260 fluorescence intensity (a.u.)

seq.text: TCTCCCTTTCATTTTTATGTATGTTGGAATTATTTTTGTTCGGAGTCACCTAGTGCAG
binding signal: 8590 fluorescence intensity (a.u.)

seq.text: AGAGGTTTGGGGTTGGTTCATCTCGCGGGCTTGGGCGGCGCGGAGTCACCTAGTGCAG
binding signal: 14400 fluorescence intensity (a.u.)

seq.text: GGGTGCTGGGGCTTTGGCTGCCTTGACTTGGATTGCCTTCCGGAGTCACCTAGTGCAG
binding signal: 8640 fluorescence intensity (a.u.)

seq.text: TACTTGGCTATACTATTAAACTTGCTCTCGCACCATCTTTCGGAGTCACCTAGTGCAG
binding signal: 9680 fluorescence intensity (a.u.)

seq.text: AGGTCTTTTTCACGTCGCAACCATGGCTTCAAATTTTGCTCGGAGTCACCTAGTGCAG
binding signal: 11900 fluorescence intensity (a.u.)

seq.text: ACACACCGCGGGTTGGAGGAGGAGGAGGAGGAGGTAGGGGCGGAGTCACCTAGTGCAG
binding signal: 10500 fluorescence intensity (a.u.)

seq.text: TATAGGCCACTTGTGCCTCGGCTCACGTTGACCTGCCTTACGGAGTCACCTAGTGCAG
binding signal: 8170 fluorescence intensity (a.u.)

seq.text: GTTTCCTGGTGGTCCAATATAATACCTAGATAAGGTGTATCGGAGTCACCTAGTGCAG
binding signal: 8510 fluorescence intensity (a.u.)

seq.text: CCCCAAAATACTCGACGCTGAACTTTCCCATCAGCTAGTACGGAGTCACCTAGTGCAG
binding signal: 8280 fluorescence intensity (a.u.)

seq.text: TTTGCGTCGCCTTTCATTTTGGATGTTTCAATTTGAATACCGGAGTCACCTAGTGCAG
binding signal: 10400 fluorescence intensity (a.u.)

seq.text: GCTAATAAGTGCTTACATTGTTTTGGATGATCACCAGCAACGGAGTCACCTAGTGCAG
binding signal: 8080 fluorescence intensity (a.u.)

seq.text: GCCTTTGTCGGTCATGTTCCCATCGCTTTAGTTCTTCTCACGGAGTCACCTAGTGCAG
binding signal: 15000 fluorescence intensity (a.u.)

seq.text: CATTAATTCCAACATATAGTACTCCGCCATTTTGACTCGCCGGAGTCACCTAGTGCAG
binding signal: 8640 fluorescence intensity (a.u.)

seq.text: CTTGGAGGTGGTTCAGGTGGAGGCGGCGGTCTCGGAGGTGCGGAGTCACCTAGTGCAG
binding signal: 9240 fluorescence intensity (a.u.)

seq.text: GTCCAGATACTAAGGTGTATGGTATTATCGGAAAACCTGTCGGAGTCACCTAGTGCAG
binding signal: 24300 fluorescence intensity (a.u.)

seq.text: TTTCCCTGATCCTTTTCCTAACCCAGTGGCAGGCATCTTTCGGAGTCACCTAGTGCAG
binding signal: 9990 fluorescence intensity (a.u.)

seq.text: CGGCGGGTTAGGGTTTGGGGTTGGGGTAAGGATAGGAGGGCGGAGTCACCTAGTGCAG
binding signal: 14200 fluorescence intensity (a.u.)

seq.text: CTGGGGTTGGCCTGGGCTGATATATGTTTGGCGCTCAAAACGGAGTCACCTAGTGCAG
binding signal: 11100 fluorescence intensity (a.u.)
